Hey, just so you know, these numbers are from PubChem BioAssay (NCI).

Tested on: OVCAR-8 ovarian
assay.info: NCI-60 one-dose screen, 48 h (100 = growth as untreated, 0 = no growth, -100 = all killed)
experimental.parameters: 10 µM unless noted
This is part of a sample that, as a whole, favours compounds with a hit. Of some 83,000 tested, about 20% had one in any assay.
Sorting guide: entries reporting growth beneath 10% go in the 1 (yes) pile, the rest go in the 0 (no) pile.

### Prompt Please state whether growth is below 10% for O=C1/C=C/[C@@H](O)[C@@H]2C[C@@H](O)C[C@H]2/C=C/CCC[C@H](CCOCc2ccccc2)O1
### Response 1 (yes)

### Prompt Please state whether growth is below 10% for N#CCC1=NC(c2cccs2)=Nc2ccccc2S1
### Response 0 (no)

### Prompt Please state whether growth is below 10% for Cc1nc2sc(C(=O)Nc3ccccc3)c(N)c2cc1C(=O)/C=C/c1ccccc1
### Response 1 (yes)

### Prompt Please state whether growth is below 10% for CCN(CC)CCNC(=O)c1ccc(-c2nc3ccc4[nH]ncc4c3c3c2CCCC3)cc1
### Response 0 (no)

### Prompt Please state whether growth is below 10% for O[C@@H](c1cc(C(F)(F)F)nc2c(C(F)(F)F)cccc12)[C@H]1CCCCN1
### Response 0 (no)

### Prompt Please state whether growth is below 10% for CC[C@H](CC[C@@H](C)[C@H]1CC[C@H]2[C@@H]3CC[C@@H]4CC(=O)/C(=C\c5ccncc5)C[C@]4(C)[C@H]3CC[C@]12C)C(C)C
### Response 0 (no)

### Prompt Please state whether growth is below 10% for CN1C(=O)N(C)C2C1NC(=S)N2/N=C/C=C/c1ccccc1[N+](=O)[O-] (stereo not drawn)
### Response 0 (no)

### Prompt Please state whether growth is below 10% for CCCCN1C(=O)/C(=c2\sc3n(c2=O)NC2C(N=3)N(CC)C(=O)N2CC)c2ccccc21 (stereo not drawn)
### Response 0 (no)

### Prompt Please state whether growth is below 10% for COc1ccc2c(c1)c(-c1ccc(-c3cn(C)c4ccc(OC)cc34)[nH]1)cn2C
### Response 1 (yes)

### Prompt Please state whether growth is below 10% for C=C1C(=O)O[C@H]2[C@H]1CC/C(Cn1cc(-c3cc(C(F)(F)F)cc(C(F)(F)F)c3)nn1)=C\CC[C@@]1(C)O[C@@H]21
### Response 1 (yes)

### Prompt Please state whether growth is below 10% for C=C(CO)[C@@H]1CC[C@]2(COC3CCCCO3)CC[C@]3(C)[C@H](CC[C@@H]4[C@@]5(C)C=C(C=O)C(=O)C(C)(C)[C@@H]5CC[C@]43C)[C@@H]12 (stereo partly drawn)
### Response 1 (yes)

### Prompt Please state whether growth is below 10% for O=C(/C=C/c1ccc(Br)cc1)c1ccc(-n2cc(CN3CCN(c4cc5c(cc4F)c(=O)c(C(=O)O)cn5C4CC4)CC3)nn2)cc1
### Response 0 (no)

### Prompt Please state whether growth is below 10% for Cn1ncc2ccc(-c3nc(-c4ccccc4)[nH]c3-c3n[nH]c(=O)n3C3CC3)cc21
### Response 0 (no)

### Prompt Please state whether growth is below 10% for COc1ccc(C2C3=C(COC3=O)N(CCO)c3cc4c(cc32)OCCO4)cc1OC (stereo not drawn)
### Response 0 (no)

### Prompt Please state whether growth is below 10% for COc1ccc2cc(-c3ccc(-c4ccc(C(=N)N)s4)s3)ccc2c1
### Response 1 (yes)

### Prompt Please state whether growth is below 10% for CCN1C(=S)N(CC)C2C1NC(=S)N2/N=C/C=C/c1ccccc1OC (stereo not drawn)
### Response 0 (no)

### Prompt Please state whether growth is below 10% for O=C1Nc2ccccc2C2c3cccn3-c3ccccc3N12 (stereo not drawn)
### Response 0 (no)

### Prompt Please state whether growth is below 10% for CC/C=C1/C(=O)C=C[C@@H]1C/C=C\CCCC(=O)OC
### Response 0 (no)
